tested on: P. aeruginosa HM-214; conditions: strain HM-214; antibiotic + D-11 (MICb/MICbc 128/4)
Below, each of the compounds is paired with its reported FICI value.
MEASURE: FICI

CO[C@H]1/C=C/O[C@@]2(C)Oc3c(C)c(O)c4c(c3C2=O)C2=NC3(CCN(CC(C)C)CC3)NC2=C(NC(=O)/C(C)=C\C=C\[C@H](C)[C@H](O)[C@@H](C)[C@@H](O)[C@@H](C)[C@H](OC(C)=O)[C@@H]1C)C4=O :: 0.039
CC[C@H]1OC(=O)[C@H](C)[C@@H](O[C@H]2C[C@@](C)(OC)[C@@H](O)[C@H](C)O2)[C@H](C)[C@@H](O[C@@H]2O[C@H](C)C[C@H](N(C)C)[C@H]2O)[C@](C)(O)C[C@@H](C)CN(C)[C@H](C)[C@@H](O)[C@]1(C)O :: 0.281
COc1cc(Cc2cnc(N)nc2N)cc(OC)c1OC :: 0.281
C[C@@H]1O[C@@H]1P(=O)(O)O :: 0.281
CO[C@H]1/C=C/O[C@@]2(C)Oc3c(C)c(O)c4c(O)c(c5c(nc6cc(C)ccn65)c4c3C2=O)NC(=O)/C(C)=C\C=C\[C@H](C)[C@H](O)[C@@H](C)[C@@H](O)[C@@H](C)[C@H](OC(C)=O)[C@@H]1C :: 0.063
CO[C@@H]1[C@@H](OC(N)=O)[C@@H](O)[C@H](Oc2ccc3c(O)c(NC(=O)c4ccc(O)c(CC=C(C)C)c4)c(=O)oc3c2C)OC1(C)C :: 0.531

----------
test system: clinical P. aeruginosa isolates; assay: microbe, parasite or virus in culture; settings: Pseudomonas aeruginosa, 18 h, read-out: Antibiotic sensibility (MIC) of clinical P. aeruginosa isolate AUMC-Pa-6, strain AUMC-Pa-6; antibiotic alone
Below, each of the compounds is paired with its reported MIC value.
MEASURE: MIC

CN(C)c1cc(NC(=O)CNC(C)(C)C)c(O)c2c1C[C@H]1C[C@H]3[C@H](N(C)C)C(O)=C(C(N)=O)C(=O)[C@@]3(O)C(O)=C1C2=O :: 8 µM
[H]/N=C(/N)N[C@H]1[C@H](O)[C@@H](O)[C@H](O[C@@H]2O[C@@H](C)[C@](O)(C=O)[C@H]2O[C@@H]2O[C@@H](CO)[C@H](O)[C@@H](O)[C@@H]2NC)[C@@H](N/C(N)=N\[H])[C@@H]1O :: 16 µM
NCC[C@H](O)C(=O)N[C@@H]1C[C@H](N)[C@@H](O[C@H]2O[C@H](CN)[C@@H](O)[C@H](O)[C@H]2O)[C@H](O)[C@H]1O[C@H]1O[C@H](CO)[C@@H](O)[C@H](N)[C@H]1O :: 2 µM

----------
Below, each of the compounds is paired with its reported MIC value.
system: clinical P. aeruginosa isolates; test: microbe, parasite or virus in culture; conditions: Pseudomonas aeruginosa, 18 h, read-out: Antibiotic sensibility (MIC) of clinical P. aeruginosa isolate AUMC-Pa-5
MEASURE: MIC (µM)

CO[C@@H]1[C@@H](OC(=O)c2ccc(C)[nH]2)[C@@H](O)[C@H](Oc2ccc3c(O)c(NC(=O)c4ccc(O)c(CC=C(C)C)c4)c(=O)oc3c2Cl)OC1(C)C [Chlorobiocin] :: 1
CO[C@H]1[C@H](OC(=O)c2ccc(C)[nH]2)[C@H](O)[C@@H](Oc2ccc3c(O)c(NC(=O)c4c[nH]c(C(=O)Nc5c(O)c6ccc(O[C@H]7OC(C)(C)[C@@H](OC)[C@H](OC(=O)c8ccc(C)[nH]8)[C@@H]7O)c(C)c6oc5=O)c4C)c(=O)oc3c2C)OC1(C)C [Coumermycin A1] :: 8

----------
system: clinical P. aeruginosa isolates; assay: microbe, parasite or virus in culture; details: Pseudomonas aeruginosa, 18 h, read-out: Antibiotic sensibility (MIC) of clinical P. aeruginosa isolate AUMC-Pa-6, strain AUMC-Pa-6; antibiotic alone
MEASURE: MIC

CO[C@@H]1[C@@H](OC(N)=O)[C@@H](O)[C@H](Oc2ccc3c(O)c(NC(=O)c4ccc(O)c(CC=C(C)C)c4)c(=O)oc3c2C)OC1(C)C [Novobiocin] :: > 128 µM
C[C@@H]1O[C@@H]1P(=O)(O)O [Fosfomycin] :: > 128 µM
CC1(C)S[C@@H]2[C@H](NC(=O)[C@H](N)c3ccc(O)cc3)C(=O)N2[C@H]1C(=O)O [Amoxicin, Amoxicillin] :: > 128 µM

----------
system: P. aeruginosa PA14; experiment: microbe, parasite or virus in culture; design: unit not given beside the values; conditions: strain PA14; with D-11 at MICbc 4; unit not given
Label Satisfied when MICac: MIC of the antibiotic in the combination is strictly below 4; at or above that, label Not satisfied.

CO[C@H]1/C=C/O[C@@]2(C)Oc3c(C)c(O)c4c(c3C2=O)C2=NC3(CCN(CC(C)C)CC3)NC2=C(NC(=O)/C(C)=C\C=C\[C@H](C)[C@H](O)[C@@H](C)[C@@H](O)[C@@H](C)[C@H](OC(C)=O)[C@@H]1C)C4=O [Rifabutin] :: Satisfied
CO[C@H]1/C=C/O[C@@]2(C)Oc3c(C)c(O)c4c(O)c(c(/C=N/N5CCN(C)CC5)c(O)c4c3C2=O)NC(=O)/C(C)=C\C=C\[C@H](C)[C@H](O)[C@@H](C)[C@@H](O)[C@@H](C)[C@H](OC(C)=O)[C@@H]1C [Rifampicin] :: Satisfied
CC[C@H]1OC(=O)[C@H](C)[C@@H](O[C@H]2C[C@@](C)(OC)[C@@H](O)[C@H](C)O2)[C@H](C)[C@@H](O[C@@H]2O[C@H](C)C[C@H](N(C)C)[C@H]2O)[C@](C)(O)C[C@@H](C)C(=O)[C@H](C)[C@@H](O)[C@]1(C)O [Erythromycin] :: Not satisfied
CO[C@@H]1[C@@H](OC(N)=O)[C@@H](O)[C@H](Oc2ccc3c(O)c(NC(=O)c4ccc(O)c(CC=C(C)C)c4)c(=O)oc3c2C)OC1(C)C [Novobiocin] :: Not satisfied
CO[C@H]1[C@H](OC(=O)c2ccc(C)[nH]2)[C@H](O)[C@@H](Oc2ccc3c(O)c(NC(=O)c4c[nH]c(C(=O)Nc5c(O)c6ccc(O[C@H]7OC(C)(C)[C@@H](OC)[C@H](OC(=O)c8ccc(C)[nH]8)[C@@H]7O)c(C)c6oc5=O)c4C)c(=O)oc3c2C)OC1(C)C [Coumermycin A1] :: Satisfied
CN(C)[C@@H]1C(O)=C(C(N)=O)C(=O)[C@@]2(O)C(O)=C3C(=O)c4c(O)c(NC(=O)CN5CCCC5)cc(F)c4C[C@H]3C[C@@H]12 [Eravacycline] :: Satisfied
CC1COc2c(N3CCN(C)CC3)c(F)cc3c(=O)c(C(=O)O)cn1c23 (centres unmarked) [Ofloxacin] :: Satisfied
C[C@H]1COc2c(N3CCN(C)CC3)c(F)cc3c(=O)c(C(=O)O)cn1c23 [Levofloxacin] :: Satisfied
COc1cc(Cc2cnc(N)nc2N)cc(OC)c1OC [Trimethoprim] :: Not satisfied

----------
tested on: P. aeruginosa AUMC-Pa-5; experiment: microbe, parasite or virus in culture; settings: strain AUMC-Pa-5; antibiotic + D-11 (MICb/MICbc 64/4)
Positions of bridges follow the written chain, without caps; N, C: chain ends. Non-standard residues stand in square brackets, D forms with d. Residues, ends and D or L forms follow the SMILES beside them. *: point of attachment. X1 = CC[C@H](C)CCCCC(=O)*; Dab = NCC[C@H](N)C(=O)O
Use Met when the recorded FICI is no lower than 0.6; use Not met when it is lower.

CO[C@H]1/C=C/O[C@@]2(C)Oc3c(C)c(O)c4c(O)c(c5c(nc6cc(C)ccn65)c4c3C2=O)NC(=O)/C(C)=C\C=C\[C@H](C)[C@H](O)[C@@H](C)[C@@H](O)[C@@H](C)[C@H](OC(C)=O)[C@@H]1C :: Not met
CO[C@H]1/C=C/O[C@@]2(C)Oc3c(C)c(O)c4c(c3C2=O)C2=NC3(CCN(CC(C)C)CC3)NC2=C(NC(=O)/C(C)=C\C=C\[C@H](C)[C@H](O)[C@@H](C)[C@@H](O)[C@@H](C)[C@H](OC(C)=O)[C@@H]1C)C4=O :: Not met
CC[C@H]1OC(=O)[C@H](C)[C@@H](O[C@H]2C[C@@](C)(OC)[C@@H](O)[C@H](C)O2)[C@H](C)[C@@H](O[C@@H]2O[C@H](C)C[C@H](N(C)C)[C@H]2O)[C@](C)(OC)C[C@@H](C)C(=O)[C@H](C)[C@@H](O)[C@]1(C)O :: Not met
CC[C@H]1OC(=O)[C@H](C)C(=O)[C@H](C)[C@@H](O[C@@H]2O[C@H](C)C[C@H](N(C)C)[C@H]2O)[C@](C)(OC)C[C@@H](C)C(=O)[C@H](C)[C@H]2N(CCCCn3cnc(-c4cccnc4)c3)C(=O)O[C@]12C :: Not met
CC[C@H](C)CCCCC(=O)N[C@@H](CCN)C(=O)N[C@H](C(=O)N[C@@H](CCN)C(=O)N[C@H]1CCNC(=O)[C@H]([C@@H](C)O)NC(=O)[C@H](CCN)NC(=O)[C@H](CCN)NC(=O)[C@H](CC(C)C)NC(=O)[C@@H](CC(C)C)NC(=O)[C@H](CCN)NC1=O)[C@@H](C)O [Colistin] (X1-[Dab]T[Dab][Dab][Dab][dL]L[Dab][Dab]T; lactam 4-C (inferred); N-terminus assumed) :: Met
C[C@H]1c2cccc(O)c2C(=O)C2=C(O)[C@]3(O)C(=O)C(C(N)=O)=C(O)[C@@H](N(C)C)[C@@H]3[C@@H](O)[C@@H]21 :: Not met
CN(C)c1ccc(O)c2c1C[C@H]1C[C@H]3[C@H](N(C)C)C(O)=C(C(N)=O)C(=O)[C@@]3(O)C(O)=C1C2=O :: Met
C[C@H]1[C@H](NC(=O)/C(=N\OC(C)(C)C(=O)O)c2csc(N)n2)C(=O)N1S(=O)(=O)O :: Not met
C[C@@H](O)[C@H]1C(=O)N2C(C(=O)O)=C(S[C@@H]3CN[C@H](C(=O)N(C)C)C3)[C@H](C)[C@H]12 :: Met
CN(C)[C@@H]1C(O)=C(C(N)=O)C(=O)[C@@]2(O)C(O)=C3C(=O)c4c(O)c(NC(=O)CN5CCCC5)cc(F)c4C[C@H]3C[C@@H]12 :: Met
CO[C@H]1/C=C/O[C@@]2(C)Oc3c(C)c(O)c4c(O)c(c(/C=N/N5CCN(C)CC5)c(O)c4c3C2=O)NC(=O)/C(C)=C\C=C\[C@H](C)[C@H](O)[C@@H](C)[C@@H](O)[C@@H](C)[C@H](OC(C)=O)[C@@H]1C :: Not met
CCn1cc(C(=O)O)c(=O)c2ccc(C)nc21 :: Met
COc1cc(Cc2cnc(N)nc2N)cc(OC)c1OC :: Not met
CC1(C)S[C@@H]2[C@H](NC(=O)C(C(=O)O)c3ccccc3)C(=O)N2[C@H]1C(=O)O (some centres unmarked) :: Met

Hello, the source for this data is paper PMC8445441, in case you need it.
